measuredTarget: AChE from Electrophorus electricus (eelAChE) type VI-S (Electrophorus electricus)
Construct: purchased Sigma-Aldrich type VI-S
Sequence (O42275 24-633): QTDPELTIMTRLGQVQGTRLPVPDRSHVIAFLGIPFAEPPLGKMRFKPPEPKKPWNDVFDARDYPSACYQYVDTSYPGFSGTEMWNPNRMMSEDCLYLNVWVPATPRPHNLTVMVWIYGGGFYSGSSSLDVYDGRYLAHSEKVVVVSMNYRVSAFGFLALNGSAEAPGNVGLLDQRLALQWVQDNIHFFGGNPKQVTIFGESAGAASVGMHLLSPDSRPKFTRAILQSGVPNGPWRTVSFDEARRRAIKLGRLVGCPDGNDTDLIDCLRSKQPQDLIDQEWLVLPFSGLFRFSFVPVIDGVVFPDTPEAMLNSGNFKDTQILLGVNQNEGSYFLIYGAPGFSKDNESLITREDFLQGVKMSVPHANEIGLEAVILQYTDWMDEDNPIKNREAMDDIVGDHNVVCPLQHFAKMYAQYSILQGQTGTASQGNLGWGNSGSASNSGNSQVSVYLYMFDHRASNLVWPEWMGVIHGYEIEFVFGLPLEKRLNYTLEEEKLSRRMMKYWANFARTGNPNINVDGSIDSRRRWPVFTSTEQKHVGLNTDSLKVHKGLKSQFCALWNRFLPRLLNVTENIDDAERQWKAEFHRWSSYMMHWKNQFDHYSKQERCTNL
assayProtocol: biochemical
assayContext: pH 8, 10 μL of 1.0 mM compound stock in 100 μL reaction mixture; 20 μL ACh stock 350 μM; ammonium acetate 15 mM pH 8.0; read-out: % Inhibition eelAChE-ICER
observable: inhibition (%)
Respond numerically; units are % and should not be typed.

Let me know recorded inhibition for COc1cc2c(cc1O)[C@@H]1Cc3ccc(O)c(OC)c3C[N@@+]1(Cc1ccccc1)CC2 [1b, (7S,13aS)-7-benzylstepholidine] , thanks.
90.5

***
Let me know recorded inhibition for COc1cc2c(cc1OCc1ccccc1)[C@@H]1Cc3ccc(O)c(OC)c3CN1CC2 [1c, (S)-2-O-benzylstepholidine] , thanks.
35.2
